test system: M. tuberculosis H37Rv growth inhibition with meropenem; experiment: dose response, H37Rv, with and without meropenem (AID 434987); details: measured here: IC90 with meropenem;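 also: growth over 7 days at 37 °C before Alamar Blue read on day 9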
Listed compounds paired with reported IC90

compound	result
Cc1ccc(C)c(-n2c(-c3ccco3)n[nH]c2=S)c1	> 100 µM

**Query** Which IC90 is listed for "O=C(NC1CCCCC1)C1CCN(c2nccs2)CC1" ?
**Result** > 100 µM

**Query** Form field: reported IC90 of "COC(=O)c1ccc(/C=N/Nc2nc(-c3ccc(C)cc3)cs2)cc1"
**Result** > 100 µM

**Query** Look at this compound and give its reported IC90. "O=C(N/N=C/c1ccc(-c2cccc(C(F)(F)F)c2)o1)c1ccccc1O"
**Result** > 100 µM

**Query** Consider the compound shown here: "COc1ccc(NC(=O)CCn2c(=O)c3cccn3c3ccccc32)cc1" What is its recorded IC90?
**Result** > 100 µM

**Query** Returns the measured IC90 for the input compound. Input: "COc1ccc(/C=C2/CCCC(C(=O)C(F)(F)F)=C2O)cc1OC"
**Result** > 100 µM

**Query** State the recorded IC90 for this entry: "CN(C)CC[C@@H](c1ccc(Br)cc1)c1ccccn1"
**Result** > 100 µM

**Query** Returns the measured IC90 for the input compound. Input: "Cc1ccc(-c2[nH][nH]c(=O)c(=O)c2N=Nc2ccccc2)cc1"
**Result** 86.2 µM

* * *

system: M. tuberculosis H37Rv growth inhibition with meropenem; assay: dose response, H37Rv, with and without meropenem (AID 434987);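 also: growth over 7 days at 37 °C before Alamar Blue read on day 9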; conditions: M. tuberculosis H37Rv growth inhibition; measured here: IC50 without meropenem
reported endpoint: IC50 (µM)
A number alone suffices; assume µM.

compound	endpoint unit	numeric result
COc1ccccc1C(=O)Nc1ccc2c3c(cccc13)CC2	µM	35.9
O=C(Nc1nnc(-c2ccc3c(c2)OCCO3)o1)C1CCCCC1	µM	55
O=C(CCN1CCOCC1)c1ccc(N2CCCCC2)cc1	µM	27.5

**Query** Value lookup for IC50; key = "O=C(COC(=O)c1ccc([N+](=O)[O-])s1)NCc1ccc(F)cc1"
**Result** 56.6

**Query** Given the entry CC1CN(C(=S)NC(=O)c2cccc([N+](=O)[O-])c2)CC(C)O1 (centres undefined) , report its measured IC50.
**Result** 42.3

**Query** # IC50 lookup, item "O=C(CCSc1ccc(Cl)c(Cl)c1)NC12CC3CC(CC(C3)C1)C2"
**Result** 66.3

* * *

system: M. tuberculosis H37Rv growth inhibition with meropenem; test: dose response, H37Rv, with and without meropenem (AID 434987); conditions: measured here: IC90 with meropenem;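 also: growth over 7 days at 37 °C before Alamar Blue read on day 9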
Reported IC90 values for the following molecules.

**Query** Reported IC90, molecule "COc1cc(/C=C/C(=O)NC(C)(C)C)ccc1OCc1ccccc1" : ____
**Result** > 100 µM

**Query** Which IC90 reading was recorded for the molecule "Cc1ccsc1/C=N/Nc1ncc(Cl)cc1Cl" ?
**Result** > 100 µM

**Query** # input molecule: "COC(=O)C1=C(C)NC(=O)/C1=C\c1cc(C)n(-c2cc(C)cc(C)c2)c1C" ; wanted: its IC90
**Result** > 100 µM

**Query** What measured IC90 goes with "COc1cc(C(F)(F)F)nc2ccc(C#CCOC(=O)Nc3ccccc3)cc12" ?
**Result** > 100 µM

**Query** // returns reported IC90 for input "Cn1nnnc1Sc1ncnc2scc(-c3ccccc3)c12"
**Result** > 100 µM

**Query** I would be grateful if you could share the reported IC90 for "O=C(Cn1c(=O)c2cccn2c2ccccc21)NCCc1ccc(Cl)cc1" .
**Result** > 100 µM

* * *

system: M. tuberculosis H37Rv growth inhibition with meropenem; experiment: dose response, H37Rv, with and without meropenem (AID 434987);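 also: growth over 7 days at 37 °C before Alamar Blue read on day 9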; details: M. tuberculosis H37Rv growth inhibition; measured here: IC50 without meropenem
reported endpoint: IC50

Some molecules with known IC50 results, for comparison:
molecule	result
O=C(NCc1cccs1)c1cc(-c2ccccc2)nc2ccccc12	> 100 µM
CC1(C)C2CC=C(/C=N/NC(=O)c3ccccc3O)C1C2 (stereo not drawn)	> 100 µM

**Query** Checklist item: IC50 tested on M. tuberculosis H37Rv growth inhibition with meropenem, entry "COc1ccc2nc(NC(=O)NC3CCCCC3)sc2c1" , value?
**Result** > 100 µM

**Query** Give IC50 (M. tuberculosis H37Rv growth inhibition with meropenem) of the following molecule: "CCOC(=O)c1sc2ccccc2c1NC(=O)c1coc2ccccc2c1=O"
**Result** > 100 µM

**Query** Notebook: pull reported IC50 for M. tuberculosis H37Rv growth inhibition with meropenem, entry "CCN1C(=O)[C@@H]2[C@@H](c3ccc(-c4ccc(Cl)c(Cl)c4)c(OC)c3)N3CCC[C@@]3(C(=O)OC)[C@@H]2C1=O"
**Result** > 100 µM

**Query** Give IC50 (M. tuberculosis H37Rv growth inhibition with meropenem) of the following molecule: "COc1c(F)c(F)c(C(=O)Nc2c(C)cc(Br)cc2C)c(F)c1F"
**Result** > 100 µM

**Query** Write down the reported IC50 of "CCOC(=O)c1nn(-c2ccccc2)c(C#N)c1NC(=O)c1nn(CC)cc1Br" , test system: M. tuberculosis H37Rv growth inhibition with meropenem.
**Result** > 100 µM

**Query** Recorded IC50 for "N#Cc1c(C(F)(F)F)cc(-c2ccccc2)nc1SCC(=O)Nc1sc2c(c1C#N)CCC2" with M. tuberculosis H37Rv growth inhibition with meropenem, please?
**Result** > 100 µM

**Query** Item: "CC(C)c1ccc(/C=C/C(=O)NC2CCCCC2)cc1" Test system: M. tuberculosis H37Rv growth inhibition with meropenem Read-out: IC50 Value: ?
**Result** > 100 µM

**Query** What reported IC50 corresponds to CN(C)S(=O)(=O)c1ccc(C(=O)OCC2CC2(Cl)Cl)cc1 (stereo not drawn) on M. tuberculosis H37Rv growth inhibition with meropenem?
**Result** > 100 µM

**Query** Look up IC50 with M. tuberculosis H37Rv growth inhibition with meropenem for this molecule: O=C(NCC(c1ccco1)N1CCc2ccccc21)c1ccc([N+](=O)[O-])cc1 (stereo not drawn)
**Result** > 100 µM

* * *

Readings of IC90 for the listed molecules
tested on: M. tuberculosis H37Rv growth inhibition with meropenem; assay: dose response, H37Rv, with and without meropenem (AID 434987); details: measured here: IC90 with meropenem;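 also: growth over 7 days at 37 °C before Alamar Blue read on day 9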

// worked examples, IC90 included
molecule	IC90
Cc1cc(NC(=O)CSc2nc(C(C)C)nc3sc4c(c23)CCCC4)no1	> 100 µM
O=c1c2ccccc2c(-c2ccccc2)nn1-c1ccccc1	> 100 µM

**Query** What value of IC90 has been recorded for this entry: CC(C)(C)NS(=O)(=O)c1ccc(NC(=O)C(Sc2ccccc2)c2ccccc2)cc1 (stereo not drawn)
**Result** > 100 µM

* * *

system: M. tuberculosis H37Rv growth inhibition with meropenem; test: dose response, H37Rv, with and without meropenem (AID 434987); conditions: measured here: IC90 with meropenem;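 also: growth over 7 days at 37 °C before Alamar Blue read on day 9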
reported endpoint: IC90

Worked cases, IC90 given:
compound	IC90
COc1ccc2oc(C(=O)Nc3nc4ccccc4[nH]3)c(C)c2c1	> 100 µM
c1ccc2c(c1)Cn1nc(Cc3nc4c(s3)CCCC4)nc1-2	53 µM
CCC(=O)NC(=S)Nc1ccc(-c2nc3ccccc3s2)cc1	> 100 µM

**Query** Which IC90 value belongs to "Cn1c(=O)c2ccccc2n2c(CCl)nnc12" ?
**Result** 4.65 µM

**Query** So what does the record say about IC90 for "CCOc1ccc(NC(=S)Nc2cccnc2)cc1" ?
**Result** > 100 µM

**Query** Requested read-out: IC90. Entry: "Fc1ccc(C2Nc3cccc4cccc(c34)N2)cc1"
**Result** > 100 µM

* * *

tested on: M. tuberculosis H37Rv growth inhibition with meropenem; experiment: dose response, H37Rv, with and without meropenem (AID 434987); conditions: measured here: IC90 with meropenem;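 also: growth over 7 days at 37 °C before Alamar Blue read on day 9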
Each item that follows carries a reported IC90.

For orientation, consider the following solved cases.
compound	reported endpoint	result
NC(=O)C1CCCN(C(=O)c2ccc(NC(=O)c3cccs3)cc2)C1 (stereo unspecified)	IC90	> 100 µM
Cc1cc(C)n(-c2nc3ccccc3c(=O)n2OCC(=O)N(C)C)n1	IC90	23.3 µM
CCCCCC(=O)Nc1cccc(C2=NOC3(C2)C[C@@H](C(N)=O)N(C(=O)CC(c2ccccc2)c2ccccc2)C3)c1 (stereo partly specified)	IC90	> 100 µM
CCC1(CC)Cc2ccccc2C(N)=C1C#N	IC90	> 100 µM

**Query** Quick check: IC90 of "O=C(CCCCCN1C(=O)c2cccc([N+](=O)[O-])c2C1=O)Nc1ccccc1F" ?
**Result** 44.1 µM

**Query** // returns reported IC90 for input "CCC(CC)C(=O)Nc1ccc(Sc2ccc([N+](=O)[O-])cc2)cc1"
**Result** > 100 µM

**Query** Dear colleague, I am looking for the recorded IC90 of the following compound: "COc1cc(C(=O)Nc2cccc(-c3cn4cccnc4n3)c2)cc(OC)c1OC"
**Result** 30.2 µM

**Query** // query IC90 value for entry "C/C(CC(=O)NCc1ccco1)=N\NC(=O)CC#N"
**Result** 17.6 µM

**Query** // IC90 lookup, key: "CC(=O)Nc1ccc(SCC(=O)c2cc(C)n(CC(F)(F)F)c2C)cc1"
**Result** > 100 µM
